Give Average Particle Size D90 for every item shown.
- TEST DESCRIPTION: Particle size distribution by laser diffraction (Malvern)
- Format: physicochemical
- CONDITION CONTEXT: trihydrate
Give bare numbers, in μm.

The measured Average Particle Size D90 associated with CC1(C)S[C@@H]2[C@H](NC(=O)[C@H](N)c3ccc(O)cc3)C(=O)N2[C@H]1C(=O)O.O.O.O [entry 3, amoxicillin trihydrate] reads 91.7

The measured Average Particle Size D90 associated with CC1(C)S[C@@H]2[C@H](NC(=O)[C@H](N)c3ccc(O)cc3)C(=O)N2[C@H]1C(=O)O.O.O.O [entry 1, amoxicillin trihydrate] reads 93.3

The measured Average Particle Size D90 associated with CC1(C)S[C@@H]2[C@H](NC(=O)[C@H](N)c3ccc(O)cc3)C(=O)N2[C@H]1C(=O)O.O.O.O [entry 4, amoxicillin trihydrate] reads 23.1

The measured Average Particle Size D90 associated with CC1(C)S[C@@H]2[C@H](NC(=O)[C@H](N)c3ccc(O)cc3)C(=O)N2[C@H]1C(=O)O.O.O.O [entry 5, amoxicillin trihydrate] reads 22.5

The measured Average Particle Size D90 associated with CC1(C)S[C@@H]2[C@H](NC(=O)[C@H](N)c3ccc(O)cc3)C(=O)N2[C@H]1C(=O)O.O.O.O [entry 2, amoxicillin trihydrate] reads 94.3

Next:
The measured Average Particle Size D90 associated with CC1(C)S[C@@H]2[C@H](NC(=O)[C@H](N)c3ccc(O)cc3)C(=O)N2[C@H]1C(=O)O.O.O.O [entry 6, amoxicillin trihydrate] reads 22.4
